tested on: P-gp; assay: Apparent permeability in human Caco2 cells assessed as 50 uM P-gp inhibitor ketoconazole-mediated inhibition of digoxin efflux at 5 uM by liquid scintillation counting; type: ADME, cell-based; details: Caco-2 cells, with ketoconazole 50 uM
MEASUREMENT KIND: inhibition at 5 µM (%)
Just the number please, in %, no unit attached.

Input: Which measured inhibition at 5 µM belongs to C[C@H]1O[C@@H](O[C@H]2[C@@H](O)C[C@H](O[C@H]3[C@@H](O)C[C@H](O[C@H]4CC[C@@]5(C)[C@H](CC[C@@H]6[C@@H]5C[C@@H](O)[C@]5(C)[C@@H](C7=CC(=O)OC7)CC[C@]65O)C4)O[C@@H]3C)O[C@@H]2C)C[C@H](O)[C@@H]1O [DIGOXIN] , tested on P-gp?
Output: 100

* * *

tested on: P-gp; assay: Apparent permeability in human Caco2 cells assessed as 50 uM P-gp inhibitor cyclosporin A-mediated inhibition of digoxin efflux at 5 uM by liquid scintillation counting; assay type: ADME, cell-based; details: Caco-2 cells, with cyclosporin A 50 uM
MEASUREMENT KIND: inhibition at 5 µM (%)
Just the number please, in %, no unit attached.

Input: Value lookup for inhibition at 5 µM; key = C[C@H]1O[C@@H](O[C@H]2[C@@H](O)C[C@H](O[C@H]3[C@@H](O)C[C@H](O[C@H]4CC[C@@]5(C)[C@H](CC[C@@H]6[C@@H]5C[C@@H](O)[C@]5(C)[C@@H](C7=CC(=O)OC7)CC[C@]65O)C4)O[C@@H]3C)O[C@@H]2C)C[C@H](O)[C@@H]1O [DIGOXIN]
Output: 98

* * *

experiment: Oral bioavailability in dog; type: ADME, organism-based, Canis lupus familiaris; conditions: in vivo
MEASUREMENT KIND: bioavailability
Could you give the number and then its unit, please?

Input: Value lookup for bioavailability; key = COc1ccc(-n2nc(C(N)=O)c3c2C(=O)N(c2ccc(N4CCCCC4=O)cc2)CC3)cc1
Output: 70%

* * *

assay: Apparent permeability from basolateral to apical side of human Caco2 cells at 5 uM by liquid scintillation counting; conditions: Caco-2
MEASUREMENT KIND: Papp B→A at 5 µM (×10⁻⁶ cm/s)
Just the number please, in ×10⁻⁶ cm/s, no unit attached.

Input: Value lookup for Papp B→A at 5 µM; key = C[C@H]1O[C@@H](O[C@H]2[C@@H](O)C[C@H](O[C@H]3[C@@H](O)C[C@H](O[C@H]4CC[C@@]5(C)[C@H](CC[C@@H]6[C@@H]5C[C@@H](O)[C@]5(C)[C@@H](C7=CC(=O)OC7)CC[C@]65O)C4)O[C@@H]3C)O[C@@H]2C)C[C@H](O)[C@@H]1O [DIGOXIN]
Output: 20.5

* * *

experiment: Ratio of drug level in brain to blood in po dosed rat; format: ADME, organism-based
MEASUREMENT KIND: Kp

Input: Value lookup for Kp; key = COc1ccc(-n2nc(C(N)=O)c3c2C(=O)N(c2ccc(N4CCCCC4=O)cc2)CC3)cc1 [APIXABAN]
Output: < 0.1
